Measured values drawn from ChEMBL document CHEMBL1201862 for this set.

Form field: GI50 (one value per entry).
tested on: SNB-19; test: NCI tumour cell line growth inhibition, 48 h
Activity calls are given as the source filed them. Cut-off read from the data, not from the text of the source: active = GI50 up to about 1.1 µM and inactive = higher.

Give GI50 for this entry on SNB-19: CCOC(=O)C(=O)NC12CC3CC(CC(C3)C1)C2 > 100 µM (inactive)

Retrieve GI50 on SNB-19; query Cc1cc(C)c2c(=O)n(CC(O)CN(Cc3ccccc3)CC(O)Cn3sc4nc(C)cc(C)c4c3=O)sc2n1 (stereo not given) 18.5 µM (inactive)

Please indicate recorded GI50 of CN(CC(=O)O)c1ncc2c(n1)C=CCC2 measured with SNB-19. > 100 µM (inactive)

New cases:
For SNB-19, give the measured GI50 of the entry O=C1Nc2ccccc2C1(O)C/C(=N/O)c1ccc2ccccc2c1 (stereo not given) > 100 µM (inactive)

Determine reported GI50 for CCCCCCSc1nc(N)nc2nc[nH]c12 ; test system: SNB-19. 39.4 µM (inactive)

---

# maps each entry to its GI50
tested on: OVCAR-5; test: NCI tumour cell line growth inhibition, 48 h
Active and inactive are the calls of the source. Rule as the data show it: active = GI50 up to about 1.1 µM and inactive = higher.

Study these solved cases before continuing.
Supply recorded GI50 for C=C1CCCCCCCCC/C=C/1SCCCSC here. > 100 µM (inactive)

Entry Cc1ccc(S(=O)(=O)OC2CC=CC2)cc1 needs its GI50 filled in; supply it. > 100 µM (inactive)

***
Answer with reported GI50 of S=C(NCCc1ccccn1)c1nc[nH]c1C(=S)NCCc1ccccn1 > 100 µM (inactive)

Specify GI50 for CC(C)C1(O)C(c2ccccc2)=C(c2ccccc2)C(c2ccccc2)=C1c1ccccc1 and stop. 17.5 µM (inactive)

Determine its reported GI50: Cn1c2c(c3ccccc3c1=O)C(=O)c1ccccc1-2 > 100 µM (inactive)

Report measured GI50; entry is O=C(Nc1c(C(F)(F)F)cc(-c2ccccc2)[nH]c1=O)N1CCOCC1 > 100 µM (inactive)

Complete the entry with GI50 for CN(C)c1nc(N(C)C)nc(N(C)C23CC4CC(CC(C4)C2)C3)n1 21.4 µM (inactive)

Identify GI50 associated with the compound Cc1ccc(O)c(C2=NNC(c3cccc(Br)c3)C2)c1 (stereo unspecified) > 100 µM (inactive)

Specify GI50 for C/C(=N\Nc1nc2ccccc2o1)c1cccc[n+]1[O-] and stop. 11.4 µM (inactive)

Let me know recorded GI50 for CCOC(=O)C(=O)NC12CC3CC(CC(C3)C1)C2 , thanks. > 100 µM (inactive)

Fill in reported GI50 for this entry: CC(=O)/C(=C/NC(=S)c1ccncc1)C(=O)Nc1ccccc1C > 100 µM (inactive)

---

test system: EKVX; test: NCI tumour cell line growth inhibition, 48 h
The source made the active and inactive calls. No stated cut-off is given here; in the data, active = GI50 up to about 1.1 µM and inactive = higher.
Endpoint Label: GI50

Sample answers from the record:
Given Cc1ccc(O)c(C2=NNC(c3cccc(Br)c3)C2)c1 (stereo not given) , respond with its GI50. 35.9 µM (inactive)

Supply GI50 value. Item: Oc1nncc2[nH]c(-c3ccccc3)cc12 21.9 µM (inactive)

Further cases:
Item O=C1CC2(c3ccccc3)ON=C(c3ccccc3)N2c2ccccc2N1 (stereo not given) : provide GI50 57.1 µM (inactive)

Query GI50 for Cc1ccc(N(C)S(=O)(=O)c2ccc([N+](=O)[O-])cc2)cc1 > 100 µM (inactive)

Supply measured GI50 of Cc1cc(=O)n2nc(CCl)sc2n1 in your reply. 17.4 µM (inactive)

Read the entry COC(=O)C(/C(=N/NC(N)=S)C(=O)Nc1ccccc1[N+](=O)[O-])c1cnc2ccccc2n1 (stereo not given) and write its reported GI50. > 100 µM (inactive)

Entry COc1cc(NS(C)(=O)=O)ccc1Nc1ccnc2ccc3[nH]ccc3c12 needs its GI50 filled in; supply it. 19.4 µM (inactive)

Hello, please tell me recorded GI50 for this one: C=C[C@@]1(C)CC(=O)[C@]2(O)[C@@]3(C)[C@@H](OC(C)=O)CCC(C)(C)[C@@H]3[C@H](O)[C@H](OC(C)=O)[C@@]2(C)O1 > 100 µM (inactive)

Specify GI50 for CCOC(=O)c1cc(Br)c(-c2onc(C)c2Br)n1C and stop. 6.08 µM (inactive)

Hello, please tell me recorded GI50 for this one: O=c1c2c3c(sc2nc2n1N=C(c1ccc(Br)cc1)CS2)CCCC3 > 100 µM (inactive)
